Test system: beta amyloid production
Assay: Repressor Release Assay (RRA)
Format: cell-based
Details: Conc 20 μg/ml; luciferase activity (RLU) over diluent control; read-out: APPI Fold Increase
We begin with a simple list: items and their reported fold induction at 20 µg/mL.
API note: the answer field is a bare number with no unit suffix.

Worked cases, answers included:
# Compound, fold induction at 20 µg/mL
records = [
    ("CCC[C@H](CC)[C@@H](CO)NS(=O)(=O)c1ccc(Br)cc1 [Example 77]", 5.9),
    ("CCCCC[C@H](CC)[C@@H](CO)NS(=O)(=O)c1ccc(Br)cc1 [Example 81]", 5),
    ("CC[C@H](CC(C)C)[C@@H](CO)NS(=O)(=O)c1ccc(Cl)cc1 [Example 53]", 5.2),
    ("CCCCC[C@H](C)[C@@H](CO)NS(=O)(=O)c1ccc(Br)cc1 [Example 80]", 3.9),
    ("C[C@H](c1ccccc1)[C@@H](CO)NS(=O)(=O)c1ccc(Cl)cc1 [Example 51]", 1.6),
    ("CCC[C@H](CC(C)C)[C@@H](CO)NS(=O)(=O)c1ccc(Cl)cc1 [Example 56]", 3.6),
    ("COc1ccc([C@@H](C)[C@@H](CO)NS(=O)(=O)c2ccc(Br)cc2)cc1 [Example 71]", 1.9),
    ("CC[C@@H](c1ccccc1)[C@@H](CO)NS(=O)(=O)c1ccc(Br)cc1 [Example 83]", 3.4),
    ("CCCCCC[C@@H](CCCCC)[C@@H](CO)NS(=O)(=O)c1ccc(Cl)cc1 [Example 62]", 1.8),
    ("CCCCCC[C@@H](c1ccccc1)[C@@H](CO)NS(=O)(=O)c1ccc(Cl)cc1 [Example 65]", 1.9),
]

Could you now consider this next compound?
Q: Looking for the measured fold induction at 20 µg/mL of CC[C@@H](c1ccco1)[C@@H](CO)NS(=O)(=O)c1ccc(Br)cc1 [Example 85] , can you help?
Ans: 3.4

---

Observable: melting point

Solved cases (6 shown):
# Smiles notation, Observable, Reading
data = [
    ("CC[C@H](C)[C@@H](CO)NS(=O)(=O)c1ccc(Cl)c(N)c1", "melting point", "89 to 92 °C"),
    ("O=S(=O)(N[C@H](CO)c1ccccc1)c1ccc(Cl)cc1", "melting point", "127 to 128 °C"),
    ("CC(C)(C)[C@@H](CO)NS(=O)(=O)c1ccc(Cl)cc1", "melting point", "128 to 130 °C"),
    ("CC[C@H](C)[C@@H](CO)NS(=O)(=O)c1ccc(I)cc1", "melting point", "118 to 120 °C"),
    ("CC(C)[C@@H](CO)NS(=O)(=O)c1ccc(Br)cc1", "melting point", "89 to 94 °C"),
    ("CC(C)[C@@H](CO)NS(=O)(=O)c1ccc(Cl)cc1", "melting point", "83 to 85 °C"),
]

Moving on to the next molecule.
Q: Entry under review: O=S(=O)(N[C@H](CO)C1CCCCC1)c1ccc(Cl)cc1 . Reported melting point?
Ans: 115 to 118 °C

---

Test system: beta amyloid production
Assay: Repressor Release Assay (RRA)
Type: cell-based
Conditions: Conc 20 μg/ml; luciferase activity over diluent control; read-out: APPI Fold Increase
// f strictly below 2 in fold induction at 20 µg/mL; t otherwise

# Compound, Label value
data = [
    ("CC[C@@H](C)[C@@H](CO)NS(=O)(=O)c1ccc(Cl)cc1 [Example 39]", "t"),
    ("CC[C@H](C)[C@@H](CO)NS(=O)(=O)c1ccc(Br)c(Br)c1 [Example 22]", "f"),
    ("CC(C)(C)[C@@H](CO)NS(=O)(=O)c1cc(Cl)c(Cl)cc1Cl [Example 31]", "t"),
]

Q: Reported fold induction at 20 µg/mL reaches at least 2 for O=S(=O)(N[C@H](CO)CC1CCCCC1)c1cccc(Cl)c1 [Example 106] ?
Ans: f

Q: Query CC[C@H](C)[C@@H](CO)NS(=O)(=O)c1ccccc1Br [Example 1] next
Ans: f

Q: What do we get for CC[C@H](C)[C@@H](CO)N(Cc1ccc(-c2ccccc2)cc1)S(=O)(=O)c1ccc(Cl)cc1 [Example 41] ?
Ans: t

Q: Then CC[C@H](C)[C@@H](CO)NS(=O)(=O)c1ccc2ccccc2c1 [Example 13] ?
Ans: f

Q: Also check CC[C@H](C)[C@@H](CO)NS(=O)(=O)c1ccc(F)cc1F [Example 9]
Ans: f

---

Recorded fold induction at 3 µg/mL values for a group of compounds are listed next.
Tested on: beta amyloid production
Assay: Repressor Release Assay (RRA)
Type: cell-based
Details: Conc 3 μg/ml; luciferase activity over diluent control; read-out: APPI Fold Increase
Protocol: CHO-K1 cells were cultured in whole DMEM media (DMEM—High Glucose with 10% fetal bovine serum, 1% Non-essential Amino Acids, and 1% Penicillin-Streptomycin) at 37° C. with 5% CO2. […] Luciferase assays (LucLite reagent, Packard) were performed and were read on a Packard TopCount instrument. […] Luciferase readings were then taken on the TopCount instrument. Measurements were expressed as relative light units (RLU) and are calculated and analyzed in MS Excel as follows: […]
In your answer, state the number alone without any accompanying words.

# Compound, Assay target, Observable, Reading
rows = [
    ("CC[C@@H](C)[C@@H](CO)NS(=O)(=O)c1ccc(Cl)cc1", "beta amyloid production", "fold induction at 3 µg/mL", 1.56),
    ("CC[C@H](C)[C@@H](CO)NS(=O)(=O)c1cccc(Cl)c1Cl", "beta amyloid production", "fold induction at 3 µg/mL", 1.67),
    ("CC[C@@H](CO)NS(=O)(=O)c1cccc(Cl)c1", "beta amyloid production", "fold induction at 3 µg/mL", 1.66),
]

Q: Return reported fold induction at 3 µg/mL; argument: CCC(O)[C@@H](NS(=O)(=O)c1ccc(Br)cc1)[C@@H](C)CC (stereo partly drawn)
Ans: 2

Q: Ok, now CC[C@H](C)[C@H](NS(=O)(=O)c1ccc(F)cc1)C(C)O (stereo partly drawn)
Ans: 1.54

Q: Then this compound: CC[C@@H](C)[C@@H](CO)NS(=O)(=O)c1ccc(Br)cc1
Ans: 2.05

---

System: beta amyloid production
Experiment: Repressor Release Assay (RRA)
Assay type: cell-based
Details: Conc 10 μg/ml; relative to Example 98
Observable: APPI % of Example #98 (%)
I only need the number, in %, no unit after it.

# Compound, Reading unit, APPI % of Example #98
data = [
    ("C=CCC(O)(CC=C)[C@@H](NS(=O)(=O)c1ccc(F)cc1)[C@@H](C)CC", "%", 72.82),
    ("CC[C@H](C)[C@H](NS(=O)(=O)c1ccccc1F)C(O)(c1ccc(Cl)cc1)c1ccc(Cl)cc1", "%", 58.97),
    ("CC[C@H](C)[C@H](NS(=O)(=O)c1ccc(Br)cc1)C(O)c1ccc(OC)cc1 (some centres unmarked)", "%", 101.49),
    ("CCCCCCC(O)(CCCCCC)[C@@H](NS(=O)(=O)c1ccccc1F)[C@@H](C)CC", "%", 104.4),
    ("CC[C@H](C)[C@H](NS(=O)(=O)c1ccc(Cl)cc1)C(O)CCC1OCCCO1 (some centres unmarked)", "%", 79.4),
]

Q: Recall the recorded APPI % of Example #98 for CC[C@H](C)[C@H](NS(=O)(=O)c1ccc(Br)cc1)C(O)CCC1OCCCO1 (some centres unmarked) with beta amyloid production and state it.
Ans: 73.83

Q: Input CC[C@H](C)[C@H](NS(=O)(=O)c1ccccc1F)C(O)c1ccc(OC)cc1 (some centres unmarked)
Ans: 88.04

Q: Repeat with CC[C@H](C)[C@H](NS(=O)(=O)c1ccc(F)cc1)C(O)c1ccccc1C (some centres unmarked)
Ans: 64.57

---

Measured fold induction at 20 µg/mL, listed per entry for reference.
System: beta amyloid production
Assay: Repressor Release Assay (RRA)
Type: cell-based
Conditions: Conc 20 μg/ml; luciferase activity (RLU) over diluent control; read-out: APPI Fold Increase
Method: CHO-K1 cells were cultured in whole DMEM media (DMEM—High Glucose with 10% fetal bovine serum, 1% Non-essential Amino Acids, and 1% Penicillin-Streptomycin) at 37° C. with 5% CO2. […] Luciferase assays (LucLite reagent, Packard) were performed and were read on a Packard TopCount instrument. […] Luciferase readings were then taken on the TopCount instrument. Measurements were expressed as relative light units (RLU) and are calculated and analyzed in MS Excel as follows: […]

# Compound, Reading
measured = [
    ("CC(C)C[C@@H](c1ccccc1)[C@@H](CO)NS(=O)(=O)c1ccc(Cl)cc1 [Example 64]", 1.7),
    ("CCCCCC[C@@H](CCC)[C@@H](CO)NS(=O)(=O)c1ccc(Cl)cc1 [Example 58]", 2.6),
    ("CCC[C@H](C)[C@@H](CO)NS(=O)(=O)c1ccc(Br)cc1 [Example 76]", 5.8),
]

Q: Name the reported fold induction at 20 µg/mL value associated with the compound CC[C@@H](c1ccco1)[C@@H](CO)NS(=O)(=O)c1ccc(Cl)cc1 [Example 66]
Ans: 5.5

Q: Next up: CCC[C@H](CC(C)C)[C@@H](CO)NS(=O)(=O)c1ccc(Br)cc1 [Example 78]
Ans: 4.4

Q: Entry to check: CC(C)[C@H](C)[C@@H](CO)NS(=O)(=O)c1ccc(Cl)cc1 [Example 69]
Ans: 3.1

Q: Subsequent entry: CC[C@H](c1ccc(OC)cc1)[C@@H](CO)NS(=O)(=O)c1ccc(Br)cc1 [Example 74]
Ans: 2.5

Q: Okay, and CCCCCC[C@H](CC)[C@@H](CO)NS(=O)(=O)c1ccc(Cl)cc1 [Example 88] ?
Ans: 6.4
